# method_summary: Efflux ratio of apparent permeability from basolateral to apical side over apical to basolateral side in human Caco2 cells at 100 uM after 120 mins by UV-Vis spectrophotometry
# Type: ADME, cell-based
# run_conditions: Caco-2
Label true when efflux ratio at 2 h, 100 µM is strictly below 4; otherwise label false.

- COc1cc2c(cc1OC)CN(C(=O)c1ccc(-c3ccc(O)cc3)o1)CC2: false
- COc1cc2c(cc1OC)CN(CCCC1CCCc3c(OC)cccc31)CC2 (centres undefined): false

stdin: State whether 4 exceeds efflux ratio at 2 h, 100 µM recorded for COc1cc2c(cc1OC)CN(Cc1ccc(-c3ccc(O)cc3)o1)CC2 .
stdout: false

stdin: Same read-out for COc1cc2c(cc1OC)CN(CCc1ccccc1-c1cccc(O)c1)CC2 ?
stdout: true

stdin: Here is the next molecule: COc1ccc(-c2ccc(CCN3CCc4cc(OC)c(OC)cc4C3)cc2)cc1
stdout: false

stdin: Another molecule to check: COc1cc2c(cc1OC)CN(CCc1ccc(-c3ccc(F)cc3)cc1)CC2
stdout: true

stdin: What about COc1ccc(-c2ccc(CN3CCc4cc(OC)c(OC)cc4C3)o2)cc1 ?
stdout: true

stdin: Then what about the molecule COc1cc2c(cc1OC)CN(CCCCOc1ccc(-c3ccc(O)cc3)cc1)CC2 ?
stdout: true

stdin: And the next one, COc1cc2c(cc1OC)CN(Cc1ccc(-c3ccc(F)cc3)cc1)CC2 ?
stdout: true
